- run_description: Anticancer activity against human NHFB cells
- Type: ADME, cell-based
pIC50: −log10 of the molar value.
quantity_kind: pIC50

Some entries whose results are on file:
>  <compound_smiles>
CN(C)c1ccc(/C=C2/SC(=Nc3ccccc3Cl)NC2=O)cc1

>  <pIC50>
< 4.00

$$$$
>  <compound_smiles>
CN(C)c1ccc(/C=C2/SC(=Nc3ccccc3)NC2=O)cc1

>  <pIC50>
< 4.00

$$$$
>  <compound_smiles>
Cc1ccccc1/N=C1\NC(=O)/C(=C\c2ccc(N(C)C)cc2)S1

>  <pIC50>
< 4.00

$$$$
>  <compound_smiles>
COc1ccc(N=C2NC(=O)/C(=C\c3ccc(N(C)C)cc3)S2)cc1

>  <pIC50>
< 4.00

$$$$
>  <compound_smiles>
O=C1N/C(=N\c2ccc(Cl)cc2)S/C1=C/c1ccccc1O

>  <pIC50>
< 4.00

$$$$

Looking up CC(=O)Nc1ccc(/C=C2/S/C(=N/c3cccc(Cl)c3)NC2=O)cc1 , I see its pIC50 listed as < 4.00

----------
- Test system: NCI-H460
- run_description: Anticancer activity against paclitaxel resistant variant human H460 cells
- Assay type: functional, cell-based
Each entry below carries its recorded IC50.
Entry rule: numbers only, all in nM.

>  <compound_smiles>
CC(=O)Nc1ccc(/C=C2/S/C(=N/c3cccc(Cl)c3)NC2=O)cc1

>  <system_name>
NCI-H460

>  <units>
nM

>  <IC50>
1250

$$$$
>  <compound_smiles>
CN(C)c1ccc(/C=C2/SC(=Nc3ccccc3)NC2=O)cc1

>  <system_name>
NCI-H460

>  <units>
nM

>  <IC50>
210

$$$$
>  <compound_smiles>
Cc1ccccc1/N=C1\NC(=O)/C(=C\c2ccc(N(C)C)cc2)S1

>  <system_name>
NCI-H460

>  <units>
nM

>  <IC50>
540

$$$$

The reported value for COc1ccc(N=C2NC(=O)/C(=C\c3ccc(N(C)C)cc3)S2)cc1 in terms of IC50 is 1600

Item: CN(C)c1ccc(/C=C2/SC(=Nc3ccc(O)cc3)NC2=O)cc1 | IC50: 1080

The reported IC50 of the compound CN(C)c1ccc(/C=C2/SC(=Nc3ccccc3Cl)NC2=O)cc1 was 880

GET /value?item= CN(C)c1ccc(/C=C2/S/C(=N/c3ccc(Cl)cc3)NC2=O)cc1 &field=IC50 returns 2930

Recorded result, Cc1ccc(N=C2NC(=O)/C(=C\c3ccc(N(C)C)cc3)S2)cc1 , IC50: 820

Entry under test: COc1ccc(/C=C2/S/C(=N/c3ccccc3C)NC2=O)cc1 . Its IC50 was 1700

// IC50 lookup, compound = O=C1N/C(=N\c2ccc(Cl)cc2)S/C1=C/c1ccccc1O , result: 1180

----------
- run_description: Anticancer activity against human NHFB cells
- Format: ADME, cell-based
pIC50: −log10 of the molar value.
quantity_kind: pIC50

The reported pIC50 of the molecule CN(C)c1ccc(/C=C2/SC(=Nc3ccc(O)cc3)NC2=O)cc1 was < 4.00

So for COc1ccc(/C=C2/S/C(=N/c3ccccc3C)NC2=O)cc1 , the logged pIC50 turned out to be 3.71

Reported pIC50 for CN(C)c1ccc(/C=C2/S/C(=N/c3ccc(Cl)cc3)NC2=O)cc1 was < 4.00

Recorded pIC50 (molecule Cc1ccc(N=C2NC(=O)/C(=C\c3ccc(N(C)C)cc3)S2)cc1 ): < 4.00
